- target.or.system: Purified recombinant HIV-1 integrase (Human immunodeficiency virus type 1 group M subtype B)
- Construct: Purified recombinant HIV-1 integrase
- assay.info: in vitro HIV-1 integrase integration (strand transfer) assay
- Format: biochemical
- experimental.conditions: compound at 70 μM; immobilized precleaved substrate DNA, biotinylated target DNA, 1 hour at 37° C.
Label y when inhibition at 70 µM is at or above 90%; otherwise label n.

smiles.text: O=C(/C=C(\O)C(=O)O)CC(=O)c1ccc2ccccc2c1
group.label: y

Query block: Evaluate `O=C(/C=C(\O)C(=O)O)CC(=O)c1ccccc1F` : inhibition at 70 µM at minimum 90%?
Result block: n

Query block: I'd appreciate it if you could say whether `O=C(/C=C(\O)C(=O)O)CC(=O)c1ccccc1` has inhibition at 70 µM at least equal to 90%.
Result block: n
